Attribute: CC50
ASSAY REMARKS: Cytotoxicity assay (alamarBlue)
Type: cell-based, murine
MEASUREMENT CONTEXT: mouse; 24 h, 37 °C; read-out: CC50, toxicity against murine macrophage J774.A1
The reply should be a number in µM, with the unit left off.

Example results:
>>> value_measured("C=C(CC[C@H](O)[C@@]1(C)CC[C@H](C(C)(C)O)O1)[C@H]1CC[C@H]2O[C@@H]([C@]3(C)CC[C@@H](Br)C(C)(C)O3)CC[C@]2(C)O1 [Compound 1, dehydrothyrsiferol]")
28.8
>>> value_measured("C=C(CC[C@H](O)[C@@]1(C)CC[C@@H](O)C(C)(C)O1)[C@H]1CC[C@H]2O[C@@H]([C@]3(C)CC[C@@H](Br)C(C)(C)O3)CC[C@]2(C)O1 [Compound 3, iubol]")
7.72
>>> value_measured("C=C(CCC(=O)[C@@]1(C)CC[C@H](C(C)(C)O)O1)[C@H]1CC[C@H]2O[C@@H]([C@]3(C)CC[C@@H](Br)C(C)(C)O3)CC[C@]2(C)O1 [Compound 13, 18-ketodehydrothyrsiferol]")
23.4

Req: Endpoint output: CC50 of CC(C)(O)[C@H]1CC[C@](C)([C@@H]2CC[C@@](CI)([C@H]3CC[C@H]4O[C@@H]([C@]5(C)CC[C@@H](Br)C(C)(C)O5)CC[C@]4(C)O3)O2)O1 [Compound 14, 28-iodosaiyacenol A] . Value?
Resp: 29.4

Req: Endpoint output: CC50 of CC(C)(O)[C@H]1CC[C@](C)([C@@H]2CC[C@@](C)([C@H]3CC[C@H]4O[C@@H]([C@]5(C)CC[C@@H](Br)C(C)(C)O5)CC[C@]4(C)O3)O2)O1 [Compound 6, saiyacenol A] . Value?
Resp: 59.9
